Parameter TGI: see the listing below.
# Test system: MDA-MB-231 breast
# Test Summary: NCI tumour cell line growth inhibition, 48 h
Quantity Kind: TGI (µM)

compound=COc1c2cc(C(C)(C)C)cc1Cc1cccc(c1O)Cc1cc(C(C)(C)C)cc(c1OC)Cc1cccc(c1O)Cc1cc(C(C)(C)C)cc(c1OC)Cc1cccc(c1O)C2 quantity_kind=TGI result_qualifier=> quantitative_result=100
compound=O=C(NCCCNCCNC(=O)c1cc(-c2ccccc2)nc2ccccc12)c1cc(-c2ccccc2)nc2ccccc12 quantity_kind=TGI result_qualifier== quantitative_result=3.52
compound="COc1cc(C2SCC(=O)N2c2ccc(Oc3ccc(Cl)cc3)c(Cl)c2)cc(OC)c1OC (centres undefined)" quantity_kind=TGI result_qualifier== quantitative_result=40.3
compound=O=C1CC(=O)OC(c2ccc([N+](=O)[O-])cc2)O1 quantity_kind=TGI result_qualifier== quantitative_result=5.09
compound="CN(Cc1cnc2nc(N)nc(N)c2n1)c1ccc(C(=O)NC(CCC(=O)NCC(P(=O)(O)O)P(=O)(O)O)C(=O)O)cc1 (centres undefined)" quantity_kind=TGI result_qualifier=> quantitative_result=100
compound=CC[C@@]1(O)C(=O)OCc2c1cc1n(c2=O)Cc2cc3cc(N)ccc3nc2-1 quantity_kind=TGI result_qualifier== quantitative_result=3.11
compound=COc1ccc(-c2cn[nH]c2-c2cc(OC)c3c(c2)OCCO3)cc1 quantity_kind=TGI result_qualifier== quantitative_result=10.9
compound=CC(=O)c1cc2ccccc2n(O)c1=N quantity_kind=TGI result_qualifier=> quantitative_result=100
compound=COC(=O)CCC1=C(C)/C(=C/c2[nH]c(-c3ccc[nH]3)cc2OC)N=C1C quantity_kind=TGI result_qualifier== quantitative_result=1.35
compound=Oc1ccccc1-c1nc2c3ccccc3c3ccccc3c2[nH]1 quantity_kind=TGI result_qualifier== quantitative_result=4.44
compound=Cn1cc(CNCC2CCN(c3ncc(C(=O)NO)cn3)CC2)c2ccccc21 quantity_kind=TGI result_qualifier== quantitative_result=5.58
compound=C=CC[C@@]1(C(=O)OC)[C@H](Sc2ccccc2)C1(C)C quantity_kind=TGI result_qualifier=> quantitative_result=100
compound=Cc1nc(C(N)=S)sc1C(=O)C/C(=N/N)C(=O)Nc1cccc(Cl)c1C quantity_kind=TGI result_qualifier=> quantitative_result=100
compound=COc1ccc2nc3cc(Cl)ccc3c(NCCNCCCNC(=O)c3cc(-c4ccccc4)nc4ccccc34)c2c1 quantity_kind=TGI result_qualifier=> quantitative_result=100
compound=COC(=O)CCCCCN=Cc1c(O)c(O)c(C(C)C)c2cc(C)c(-c3c(C)cc4c(C(C)C)c(O)c(O)c(C=NCCCCCC(=O)OC)c4c3O)c(O)c12 quantity_kind=TGI result_qualifier=> quantitative_result=32.5
compound="CCOc1c(Cl)cc(CNC(C)C(O)c2ccccc2)cc1OC (centres undefined)" quantity_kind=TGI result_qualifier== quantitative_result=54.7
compound="O=C1C(Br)=C(c2ccccc2)S(=O)c2ccccc21 (centres undefined)" quantity_kind=TGI result_qualifier== quantitative_result=29.2
compound=CC(=O)Nc1ccc(S(=O)(=O)NNC(=O)c2cccnc2Nc2ccc(Cl)cc2)cc1 quantity_kind=TGI result_qualifier=> quantitative_result=100
